Provenance of the data: ChEMBL document CHEMBL4610016

Tested on: T-24
Test: Inhibition of cell migration in human T24 cells at 3 uM incubated for 24 and 48 hrs by cellular scratch assay based microscopic analysis
Format: functional
Calls of active or inactive are those of the source. The rule behind the calls is not given here.

Chemical Structure	inhibition
CC(C)CNC(=N)NC(=N)Nc1ccc(C(F)(F)F)cc1	Active
CCCCCCCNC(=N)NC(=N)Nc1ccc(F)c(F)c1	Active
N=C(NC(=N)NC1CCCC1)Nc1ccc(C(F)(F)F)cc1	Active

* * *

Reported pIC50 by item:
Test system: A2780
Assay: Antiproliferative activity against human A2780 cells assessed as reduction in cell viability incubated for 72 hrs by MTT assay
Format: functional, cell-based
Conditions: A2780, 72 h
Would you please state pIC50, meaning minus log10 of the concentration in mol/L, as a bare number?

Consider the reported pIC50 for these compounds:
Compound	Readout Number
CCN(CC)C(=N)NC(=N)Nc1ccc(C(F)(F)F)cc1	5.42
CC(C)NC(=N)NC(=N)Nc1ccc(F)cc1	4.55
CCN(C)C(=N)NC(=N)Nc1ccc(C(F)(F)F)cc1	5.29
CCCCCCCNC(=N)NC(=N)Nc1ccc(F)c(F)c1	5.82
CC(C)CNC(=N)NC(=N)Nc1ccc(C(F)(F)F)cc1	5.68
N=C(NC(=N)NC1CCCC1)Nc1ccc(F)cc1F	4.83
N=C(NC(=N)NC1CCCC1)Nc1ccc(C(F)(F)F)cc1	5.60
CC(C)CNC(=N)NC(=N)Nc1ccc(F)c(F)c1	5.17
CCN(CC)C(=N)NC(=N)Nc1ccc(F)c(F)c1	4.69
CC(C)NC(=N)NC(=N)Nc1ccc(C(F)(F)F)cc1	5.49

pIC50 for CC(C)NC(=N)NC(=N)Nc1ccc(F)c(F)c1 ?
4.59

Try the compound N=C(NC(=N)NC1CCCC1)Nc1ccc(F)c(F)c1
5.03

Try the compound CC(C)CNC(=N)NC(=N)Nc1ccc(F)cc1F
4.70

Try the compound CC(C)NC(=N)NC(=N)Nc1ccc(Cl)cc1 [PROGUANIL]
4.89

* * *

Test system: UMUC3
Experiment: Antiproliferative activity against human UM-UC-3 cells assessed as reduction in cell viability incubated for 72 hrs by MTT assay
Format: functional, cell-based
Conditions: UMUC3, 72 h
Property Label: IC50 (µM)
Field format: number, assumed µM, no unit text.

Chemical Structure	Output Unit	IC50
CC(C)NC(=N)NC(=N)Nc1ccc(Cl)cc1	µM	16.3

IC50 for N=C(NC(=N)NC1CCCC1)Nc1ccc(C(F)(F)F)cc1 ?
3.3

Try the compound CCCCCCCNC(=N)NC(=N)Nc1ccc(F)c(F)c1
2.1

Try the compound CCN(CC)C(=N)NC(=N)Nc1ccc(C(F)(F)F)cc1
4.9

Try the compound CCN(C)C(=N)NC(=N)Nc1ccc(C(F)(F)F)cc1
6.9

Try the compound N=C(NC(=N)NC1CCCC1)Nc1ccc(F)cc1F
18.4

Try the compound CC(C)CNC(=N)NC(=N)Nc1ccc(F)c(F)c1
7.1

Try the compound CC(C)NC(=N)NC(=N)Nc1ccc(F)c(F)c1
25

Try the compound CC(C)CNC(=N)NC(=N)Nc1ccc(F)cc1F
17.3

* * *

Tested on: A549
Assay: Antiproliferative activity against human A549 cells assessed as reduction in cell viability incubated for 72 hrs by MTT assay
Format: functional, cell-based
Settings: A549, 72 h
Property Label: IC50

IC50 for CC(C)NC(=N)NC(=N)Nc1ccc(F)c(F)c1 ?
5.2 µM
